target under test: Ste12 (UniProt P13574)
Sequence (P13574 whole entry): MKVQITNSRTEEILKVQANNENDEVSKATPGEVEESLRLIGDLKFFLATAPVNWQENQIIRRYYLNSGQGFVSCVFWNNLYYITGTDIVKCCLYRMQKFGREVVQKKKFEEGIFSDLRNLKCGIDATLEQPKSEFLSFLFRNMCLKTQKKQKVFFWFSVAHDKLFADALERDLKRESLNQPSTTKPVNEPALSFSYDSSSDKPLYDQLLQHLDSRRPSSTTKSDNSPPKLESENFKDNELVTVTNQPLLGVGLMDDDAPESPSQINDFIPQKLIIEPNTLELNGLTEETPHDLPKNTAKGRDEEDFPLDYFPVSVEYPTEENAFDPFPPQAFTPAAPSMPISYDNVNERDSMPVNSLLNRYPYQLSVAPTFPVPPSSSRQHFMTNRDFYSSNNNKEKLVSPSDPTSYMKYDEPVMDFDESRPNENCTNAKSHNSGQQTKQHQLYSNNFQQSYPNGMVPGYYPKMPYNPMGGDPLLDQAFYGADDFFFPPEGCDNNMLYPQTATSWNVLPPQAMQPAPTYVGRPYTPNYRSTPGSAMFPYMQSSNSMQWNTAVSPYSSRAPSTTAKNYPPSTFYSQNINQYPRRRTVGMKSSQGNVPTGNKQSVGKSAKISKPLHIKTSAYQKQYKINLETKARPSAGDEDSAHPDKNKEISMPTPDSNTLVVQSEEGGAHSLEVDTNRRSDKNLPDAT
measurement description: PBM E-score (8-mer binding enrichment) (E-score (-0.5 to 0.5)); higher = stronger / more preferred TF binding
condition parameters: protein concentration: 200 nM; construct: GST-DNA-binding domain
Over roughly 33,000 sequences, “E-score (-0.5 to 0.5)” has its median near -0.01; the highest 2% begin near 0.26. Shown is part of a subset that was picked to be rich in the highest values.
Lab note: compare PBM E-score against 0.008. Equal or greater, write 1. Smaller, write 0.

{"sequence record": "GTCGAAGA", "assigned label": 0}
{"sequence record": "TACCTGGA", "assigned label": 0}
{"sequence record": "TCGGCCGA", "assigned label": 1}
{"sequence record": "ATATTGAT", "assigned label": 1}
{"sequence record": "ACAACTGG", "assigned label": 0}
{"sequence record": "AGCGTTTA", "assigned label": 0}
{"sequence record": "CGGTTTCC", "assigned label": 1}
{"sequence record": "CATGAGCG", "assigned label": 0}
{"sequence record": "CGACCTTA", "assigned label": 1}
{"sequence record": "AGGGCTCC", "assigned label": 0}
{"sequence record": "CAGTTTTC", "assigned label": 1}
{"sequence record": "CCGGCTAC", "assigned label": 1}
{"sequence record": "GTGCAAGA", "assigned label": 0}
{"sequence record": "ACCAACCT", "assigned label": 1}
{"sequence record": "CCGGTCGC", "assigned label": 0}
{"sequence record": "GGGTTTCA", "assigned label": 1}
{"sequence record": "AGCGAGAT", "assigned label": 1}
{"sequence record": "ACAACTGA", "assigned label": 1}
{"sequence record": "GTTTTTCA", "assigned label": 1}
{"sequence record": "AGCGTTTC", "assigned label": 1}
{"sequence record": "CGCGTTTC", "assigned label": 1}

Data credit: the supplement of paper PMC3334620
